Entries and their remaining at 40 min, 0.49 µM values follow.
# assay_remarks: Metabolic stability in rat liver microsomes
# Format: in vitro ADME, Sprague–Dawley rats
# settings: male, Sprague-Dawley, pooled rat liver microsomes; rat liver microsomes, 40 min

molecule: Cc1c(C#N)cccc1-c1cc(-c2cn(Cc3cccc(C(N)=O)n3)nn2)nc(N)n1
remaining at 40 min, 0.49 µM, %: 61

molecule: Cc1c(C#N)cccc1-c1cc(-c2cn(Cc3cccc(C(C)(C)O)n3)nn2)nc(N)n1 [AB928, reference compound]
remaining at 40 min, 0.49 µM, %: 42.8

molecule: Cc1c(C#N)cccc1-c1cc(-c2cn(Cc3cccc(C#N)n3)nn2)nc(N)n1
remaining at 40 min, 0.49 µM, %: 73.7

molecule: CCOc1ccc2ccc(=O)oc2c1 [Compound 7-EC, 7-ethoxycoumarin, reference compound]
remaining at 40 min, 0.49 µM, %: 2.98
